The values you see were collected from patent US20110123544A1.

- subject of test: T1, recombinant human interleukin 12 (p40/p35 heterodimer) (human, UniProt P29460 23-328; P29459 23-219)
- T1 chain 1: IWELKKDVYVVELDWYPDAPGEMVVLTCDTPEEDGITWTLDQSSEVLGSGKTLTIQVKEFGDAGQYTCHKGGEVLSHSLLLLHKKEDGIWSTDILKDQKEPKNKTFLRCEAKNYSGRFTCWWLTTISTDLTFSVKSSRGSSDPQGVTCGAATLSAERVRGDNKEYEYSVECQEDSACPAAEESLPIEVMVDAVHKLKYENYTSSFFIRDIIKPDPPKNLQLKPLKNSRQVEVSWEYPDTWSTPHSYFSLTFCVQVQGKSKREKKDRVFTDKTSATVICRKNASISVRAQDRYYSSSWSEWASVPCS
- T1 chain 2: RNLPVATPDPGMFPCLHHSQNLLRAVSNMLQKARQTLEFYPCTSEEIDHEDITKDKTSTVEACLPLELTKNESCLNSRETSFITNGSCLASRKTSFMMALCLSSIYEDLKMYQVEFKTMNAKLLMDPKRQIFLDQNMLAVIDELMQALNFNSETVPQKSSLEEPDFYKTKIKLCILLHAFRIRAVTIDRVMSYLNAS
- assay procedure: BIAcore
Binning of koff into classes: bucket 1: < 0.0003 s⁻¹; bucket 2: ≥ 0.0003 s⁻¹ and < 0.002 s⁻¹; bucket 3: ≥ 0.002 s⁻¹

binder="FTFSRYGMH [Y61 H31 R]" class="bucket 2"
binder="FTFSAYGMH [Y61 H31 A]" class="bucket 1"
binder="FTFSEYGMH [Y61 H31 E]" class="bucket 1"
binder="FTFSSRGMH [Y61 H32 R]" class="bucket 3"
binder="FTFSSYAMH [Y61 H33 A]" class="bucket 1"
binder="FTFSIYGMH [Y61 H31 I]" class="bucket 2"
binder="FTFSSTGMH [Y61 H32 T]" class="bucket 2"
binder="FTFSSLGMH [Y61 H32 L]" class="bucket 3"
binder="FTFSYYGMH [Y61 H31 Y]" class="bucket 2"
binder="FTFSSAGMH [Y61 H32 A]" class="bucket 2"
binder="FTFSSEGMH [Y61 H32 E]" class="bucket 3"
